assay-target: CDK4/Cyclin D3 complex (Homo sapiens, UniProt P11802)
Construct: made in house; host or cells: insect cells co-infected with baculovirus vectors
Sequence (P11802 whole entry): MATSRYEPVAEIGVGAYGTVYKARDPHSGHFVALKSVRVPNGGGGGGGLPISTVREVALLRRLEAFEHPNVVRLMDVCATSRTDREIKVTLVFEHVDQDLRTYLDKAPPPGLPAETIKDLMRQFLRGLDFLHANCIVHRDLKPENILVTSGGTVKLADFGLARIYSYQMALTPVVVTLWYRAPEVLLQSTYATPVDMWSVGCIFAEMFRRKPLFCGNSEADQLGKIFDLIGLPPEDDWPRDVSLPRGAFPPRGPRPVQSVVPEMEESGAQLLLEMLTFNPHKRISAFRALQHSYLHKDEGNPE
Sequence (P30281 whole entry partner): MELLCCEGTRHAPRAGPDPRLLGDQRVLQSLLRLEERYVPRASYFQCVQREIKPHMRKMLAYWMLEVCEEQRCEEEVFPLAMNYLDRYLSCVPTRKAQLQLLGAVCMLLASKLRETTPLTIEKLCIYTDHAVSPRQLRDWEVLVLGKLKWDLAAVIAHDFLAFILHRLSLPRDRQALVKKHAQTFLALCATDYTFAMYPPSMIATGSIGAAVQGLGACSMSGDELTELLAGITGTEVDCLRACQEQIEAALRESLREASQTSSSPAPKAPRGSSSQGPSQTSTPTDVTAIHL
assay-summary: CDK4/Cyclin D assay
Assay type: biochemical
setup-conditions: Table 2
From the text: CDK4/Cyclin D Construct for Assay: A complex of human CDK4 and cyclin D3, or a complex of cyclin DI and a fusion protein of human CDK4 and glutathione-S-transferase (GST-CDK4), was purified using traditional biochemical chromatographic techniques from insect cells that had been co-infected with the corresponding baculovirus expression vectors. CDK2/Cyclin A and CDK4/Cyclin D Assays […]
pKi: −log10 of the molar value.
readout-type: pKi

The cases that follow already have their pKi on record.
INSERT INTO assay_data (compound, readout_type, meas_value) VALUES
  ('COc1ccccc1-c1csc(-c2sc(Nc3ccc(S(N)(=O)=O)cc3)nc2N)n1 [A(3)]', 'pKi', 5.08),
  ('CN(C)CCNS(=O)(=O)c1ccc(Nc2nc(N)c(-c3nc(C(=O)c4ccccc4)cs3)s2)cc1 [A(71)]', 'pKi', 3.72),
  ('C=CCOc1cc(O)cc(-c2csc(-c3sc(Nc4ccc(S(N)(=O)=O)cc4)nc3N)n2)c1 [A(62)]', 'pKi', 5.36),
  ('Nc1nc(Nc2ccc(S(N)(=O)=O)cc2)sc1-c1nc(O)cs1 [H(1)]', 'pKi', 5.42);

I: COc1cc(Nc2nc(N)c(-c3nc(-c4ccc(O)c(O)c4)cs3)s2)cc(OC)c1OC [A(12)]
II: CNc1nc(N)c(-c2nc(-c3cccc(O)c3)cs2)s1 [A(30)]
Q: # compare pKi for I vs II ; return the one with the smaller value Lab note: record the label of whichever item you select.
Result: II

====

assay-target: LCK tyrosine kinase (Homo sapiens, UniProt P06239, C224D/P223M)
Construct: starting from amino acid residue 223 to the end of the protein at residue 509; made in house; host or cells: insect cells
Sequence (P06239 223-509 P223M/C224D): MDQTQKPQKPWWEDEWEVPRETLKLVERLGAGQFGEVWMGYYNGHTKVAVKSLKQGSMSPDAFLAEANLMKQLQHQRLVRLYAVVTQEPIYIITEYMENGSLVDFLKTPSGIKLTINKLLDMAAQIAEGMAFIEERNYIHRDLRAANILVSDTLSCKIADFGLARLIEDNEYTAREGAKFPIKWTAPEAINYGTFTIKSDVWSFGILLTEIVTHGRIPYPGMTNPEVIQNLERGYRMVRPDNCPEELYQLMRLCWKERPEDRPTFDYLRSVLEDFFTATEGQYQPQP
assay-summary: LCK spectrophotometric assay
Format: biochemical
setup-conditions: Table 3, read-out: LCK (% inh @ 1 uM)
Counter-ions that a name gives are not always drawn.
readout-type: inhibition at 1 µM (%)

Previously resolved entries follow.
INSERT INTO measurements (molecule, assay_target, meas_value) VALUES
  ('COc1cc(Nc2nc(N)c(-c3nc(-c4cccc(NC(=O)c5cc(C)c(O)c(C)c5)c4)cs3)s2)cc(OC)c1OC', 'LCK tyrosine kinase (Homo sapiens, UniProt P06239, C224D/P223M)', 29),
  ('CNC(=O)Nc1nc(N)c(-c2nc(-c3cccc(NC(=O)c4cccc(OC)c4)c3)cs2)s1', 'LCK tyrosine kinase (Homo sapiens, UniProt P06239, C224D/P223M)', 15),
  ('COc1cc(Nc2nc(N)c(-c3nc(-c4cccc(NC(=O)CC5CC6CCC5C6)c4)cs3)s2)cc(OC)c1OC (stereo not shown)', 'LCK tyrosine kinase (Homo sapiens, UniProt P06239, C224D/P223M)', 44);

A: COc1cccc(C(=O)Nc2cc(-c3noc(-c4sc(NC(=O)NCCCN5CCCC5=O)nc4N)n3)c(F)cc2F)c1
B: COc1cccc(C(=O)Nc2cc(-c3noc(-c4sc(Nc5cc(OC)c(OC)c(OC)c5)nc4N)n3)c(Cl)cc2F)c1 [D(70), TFA salt]
C: COc1cccc(C(=O)Nc2ccc(C)c(-c3noc(-c4sc(Nc5ccccc5)nc4N)n3)c2)c1
D: COc1cccc(C(=O)Nc2ccc(Cl)c(-c3noc(-c4sc(Nc5cc(OC)c(OC)c(OC)c5)nc4N)n3)c2)c1
E: CNC(=O)Nc1nc(N)c(-c2nc(-c3cc(NC(=O)c4cccc(OC)c4)c(F)cc3F)no2)s1
Q: Rank order required: inhibition at 1 µM, descending. Write out the labels following the order that was asked for.
Result: D, B, C, A, E
(D: 91%, B: 61%, C: 34%, A: 7%, E: 3%)

a: COc1cc(Nc2nc(N)c(-c3nc(-c4cc(NC(=O)c5cccc(Cl)c5)c(F)cc4Cl)no3)s2)cc(OC)c1OC
b: COc1cc(Nc2nc(N)c(-c3nc(-c4cc(NC(=O)c5cccc(Cl)c5)ccc4F)no3)s2)cc(OC)c1OC
Q: Between a and b , which one shows the larger inhibition at 1 µM value? Indicate your choice by writing its label.
Result: a
(a: 79%, b: 41%)

====

assay-target: LCK tyrosine kinase (Homo sapiens, UniProt P06239, C224D/P223M)
Construct: starting from amino acid residue 223 to the end of the protein at residue 509; made in house; host or cells: insect cells
assay-summary: LCK spectrophotometric assay
Assay type: biochemical
setup-conditions: Table 3, read-out: LCK (% inh @ 1 uM)
readout-type: inhibition at 1 µM (%)

# example entries with known answers
INSERT INTO results (structure_notation, readout_type, unit_text, meas_value) VALUES
  ('COc1cc(Nc2nc(N)c(-c3nc(-c4cc(NC(=O)c5cccc(Cl)c5)ccc4C)no3)s2)cc(OC)c1OC', 'inhibition at 1 µM', '%', 97),
  ('COc1cccc(C(=O)Nc2cc(-c3csc(-c4sc(NC(=O)NCCCN5CCCC5=O)nc4N)n3)c(F)cc2F)c1', 'inhibition at 1 µM', '%', 2),
  ('CNC(=O)Nc1nc(N)c(-c2nc(-c3cccc(NC(=O)c4cccc(Cl)c4)c3)cs2)s1', 'inhibition at 1 µM', '%', 42),
  ('COc1cc(Nc2nc(N)c(-c3nc(-c4cc(NC(=O)OC(C)(C)C)ccc4Cl)no3)s2)cc(OC)c1OC', 'inhibition at 1 µM', '%', 29);

I: COc1cccc(C(=O)Nc2ccc(C)c(-c3noc(-c4sc(Nc5cc(OC)c(OC)c(OC)c5)nc4N)n3)c2)c1
II: Cc1cccc(C(=O)Nc2cccc(-c3noc(-c4sc(NC(=O)NC(C)C)nc4N)n3)c2)c1
Q: Please choose the item with the lower inhibition at 1 µM value from this pair: I and II Response format: the label of the selected entry.
Result: II

====

assay-target: CDK2/Cyclin A complex (Homo sapiens, UniProt P24941)
assay-summary: CDK2/Cyclin A assay
Format: biochemical
setup-conditions: 1.0 μM; combinatorial library compounds
readout-type: inhibition at 1 µM (%)

Check out these entries, answers already filled in.
INSERT INTO results (molecule, assay_target, readout_type, meas_value) VALUES
  ('Nc1nc(Nc2ccc(S(N)(=O)=O)cc2)sc1-c1nc(-c2ccc3ccccc3c2)cs1', 'CDK2/Cyclin A complex (Homo sapiens, UniProt P24941)', 'inhibition at 1 µM', 25.5),
  ('CC(C)c1ccc(Nc2nc(N)c(-c3nc(-c4ccc(F)cc4)cs3)s2)cc1', 'CDK2/Cyclin A complex (Homo sapiens, UniProt P24941)', 'inhibition at 1 µM', 16.1),
  ('CC(C)c1ccc(Nc2nc(N)c(-c3nc(-c4ccc(C#N)cc4)cs3)s2)cc1', 'CDK2/Cyclin A complex (Homo sapiens, UniProt P24941)', 'inhibition at 1 µM', 5.9),
  ('CC(C)c1ccc(Nc2nc(N)c(-c3nc(-c4cc(-c5ccccc5)no4)cs3)s2)cc1', 'CDK2/Cyclin A complex (Homo sapiens, UniProt P24941)', 'inhibition at 1 µM', 2.4),
  ('CC1(C)CCC(C)(C)c2cc(-c3csc(-c4sc(Nc5ccc(S(N)(=O)=O)cc5)nc4N)n3)ccc21', 'CDK2/Cyclin A complex (Homo sapiens, UniProt P24941)', 'inhibition at 1 µM', 35.9),
  ('CCN(CC)c1ccc(-c2csc(-c3sc(Nc4ccc(C(C)C)cc4)nc3N)n2)cc1', 'CDK2/Cyclin A complex (Homo sapiens, UniProt P24941)', 'inhibition at 1 µM', 12.2),
  ('Nc1nc(Nc2ccc(S(N)(=O)=O)cc2)sc1-c1nc(-c2ccc(Cl)c(Cl)c2)cs1', 'CDK2/Cyclin A complex (Homo sapiens, UniProt P24941)', 'inhibition at 1 µM', 1.3),
  ('CCOC(=O)c1ccccc1-c1csc(-c2sc(Nc3ccc(N(C)C)cc3)nc2N)n1', 'CDK2/Cyclin A complex (Homo sapiens, UniProt P24941)', 'inhibition at 1 µM', 19.8),
  ('CN(C)c1ccc(Nc2nc(N)c(-c3nc(-c4ccc5c(c4)OCCO5)cs3)s2)cc1', 'CDK2/Cyclin A complex (Homo sapiens, UniProt P24941)', 'inhibition at 1 µM', 5),
  ('Nc1nc(Nc2ccc(S(N)(=O)=O)cc2)sc1-c1nc(-c2ccc(OC(=O)c3ccccc3)cc2)cs1', 'CDK2/Cyclin A complex (Homo sapiens, UniProt P24941)', 'inhibition at 1 µM', 20.7);

1: CCc1cc2c(cc1-c1csc(-c3sc(Nc4ccc(N(C)C)cc4)nc3N)n1)C(C)(C)CCC2(C)C
2: Cc1c(F)cc(-c2csc(-c3sc(Nc4ccc(S(N)(=O)=O)cc4)nc3N)n2)cc1Cl [drawing 440]
Q: Between the entries labelled 1 and 2 , which has a larger inhibition at 1 µM value on record? Please reply using the label of the selected record.
Result: 2

A: Nc1nc(Nc2ccc(S(N)(=O)=O)cc2)sc1-c1nc(-c2c(Cl)cc(C(F)(F)F)cc2Cl)cs1
B: Cc1c(F)cc(-c2csc(-c3sc(Nc4ccc(C(C)C)cc4)nc3N)n2)cc1Cl
Q: Compare A and B by numeric inhibition at 1 µM and name the larger one. Returns: label corresponding to the selected item.
Result: A

Where do the numbers come from? From patent US6620828B2.
